Reference source: the supplement of paper PMC12855868

The entries below come with measured scaled log2 fold change values attached.
B1: library; numbered along this chain (parent)
chain: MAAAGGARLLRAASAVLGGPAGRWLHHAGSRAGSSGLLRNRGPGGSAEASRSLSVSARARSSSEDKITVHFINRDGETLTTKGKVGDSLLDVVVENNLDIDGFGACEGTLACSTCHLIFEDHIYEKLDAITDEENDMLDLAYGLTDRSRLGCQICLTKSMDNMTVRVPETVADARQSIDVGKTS

Variants of: B1
Assay: scaled log2 fold change in cell abundance, elesclomol vs control (0 = silent mean, 1 = nonsense mean) (scaled log2 ratio); higher = higher viability under elesclomol (loss of FDX1 cuproptosis function);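 further: variant abundance is its share of total variant reads in each endpoint sample, from next-generation sequencing of the integrated ORF PCR-amplified out of genomic DNA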
Settings: with ABC1 FDX1 KO; elesclomol 5 nM; glucose 10 mM; 14 days
Returns: the value as a bare number; no unit string appended.

Before answering, review these 3 worked examples.
1. G22V
0.245
2. G104C
0.959
3. G42V
0.365

Query :: Record request: scaled log2 fold change value, item `S63T`
Result :: 0.0678

Query :: Record request: scaled log2 fold change value, item `T170N`
Result :: -0.0752

Query :: Record request: scaled log2 fold change value, item `I72W`
Result :: 0.00502

Query :: Record request: scaled log2 fold change value, item `D146Y`
Result :: 0.1

Query :: Record request: scaled log2 fold change value, item `V92T`
Result :: -0.145

Query :: Record request: scaled log2 fold change value, item `L98E`
Result :: 0.00205

Query :: Record request: scaled log2 fold change value, item `L17R`
Result :: -0.051

Query :: Record request: scaled log2 fold change value, item `R31Y`
Result :: 0.463

Query :: Record request: scaled log2 fold change value, item `L10P`
Result :: -0.379

Query :: Record request: scaled log2 fold change value, item `G83D`
Result :: 0.697

Query :: Record request: scaled log2 fold change value, item `T145A`
Result :: -0.6

Query :: Record request: scaled log2 fold change value, item `L140N`
Result :: 0.179

Query :: Record request: scaled log2 fold change value, item `V85Q`
Result :: 0.0746

Query :: Record request: scaled log2 fold change value, item `L98V`
Result :: -0.0512
